Sourced from paper PMC6005765

- SYSTEM_NAME: μ opioid receptor (MOP) (Homo sapiens)
Non-standard residues stand in square brackets, D forms with d. Residues, ends and D or L forms follow the SMILES beside them. Dmt = Cc1cc(O)cc(C)c1C[C@H](N)C(=O)O
EXPERIMENTAL_ENDPOINT: pIC50
Worth noting: pIC50 values are minus log10 of concentrations stated in mol/L.

// query Look up pIC50: Cc1cc(O)cc(C)c1C[C@H](N)C(=O)N[C@H](CCCNC(=N)N)C(=O)N[C@@H](Cc1ccccc1-c1ccc(Cl)cc1)C(=O)NCC(N)=O
// result 9.46

// query Look up pIC50: Cc1cc(O)cc(C)c1C[C@H](N)C(=O)N[C@H](CCCNC(=N)N)C(=O)N[C@@H](Cc1ccccc1-c1ccc(C(F)(F)F)cc1)C(=O)NCC(N)=O
// result 10.15

// query Look up pIC50: Cc1cc(O)cc(C)c1C[C@H](N)C(=O)N[C@H](C)C(=O)N[C@@H](Cc1ccccc1)C(=O)NCC(N)=O [Compound 20, Dmt-D-Ala-Phe-Gly-NH2] (H-[Dmt][dA]FG-NH2)
// result 9.85
